All values here come from paper PMC9151729.

test: Solubility of empagliflozin in supercritical carbon dioxide (isobaric-isothermal method, UV-Vis at 276 nm); type: physicochemical; settings: supercritical carbon dioxide (ScCO2), thermodynamic from solid, 338 K, 12 MPa, ScCO2 density 388 kg/m^3; read-out: S (equilibrium solubility) in ScCO2
measurement_label: solubility thermodynamic at 60 min (µg/mL)
Give the value, in units of µg/mL, as a plain number.

Can you share its solubility thermodynamic at 60 min? I mean this molecule: OC[C@H]1O[C@@H](c2ccc(Cl)c(Cc3ccc(O[C@H]4CCOC4)cc3)c2)[C@H](O)[C@@H](O)[C@@H]1O
20.4

====

test: Solubility of empagliflozin in supercritical carbon dioxide (isobaric-isothermal method, UV-Vis at 276 nm); assay type: physicochemical; conditions: supercritical carbon dioxide (ScCO2), thermodynamic from solid, 308 K, 18 MPa, ScCO2 density 849 kg/m^3; read-out: S (equilibrium solubility) in ScCO2
measurement_label: solubility thermodynamic at 60 min (µg/mL)
Number in µg/mL, nothing else.

# lookup: solubility thermodynamic at 60 min of OC[C@H]1O[C@@H](c2ccc(Cl)c(Cc3ccc(O[C@H]4CCOC4)cc3)c2)[C@H](O)[C@@H](O)[C@@H]1O
116

====

assay: Solubility of empagliflozin in supercritical carbon dioxide (isobaric-isothermal method, UV-Vis at 276 nm); assay type: physicochemical; details: supercritical carbon dioxide (ScCO2), thermodynamic from solid, 318 K, 18 MPa, ScCO2 density 791 kg/m^3; read-out: S (equilibrium solubility) in ScCO2
measurement_label: solubility thermodynamic at 60 min

Give the measured solubility thermodynamic at 60 min of OC[C@H]1O[C@@H](c2ccc(Cl)c(Cc3ccc(O[C@H]4CCOC4)cc3)c2)[C@H](O)[C@@H](O)[C@@H]1O .
123 µg/mL

====

assay: Solubility of empagliflozin in supercritical carbon dioxide (isobaric-isothermal method, UV-Vis at 276 nm); format: physicochemical; conditions: supercritical carbon dioxide (ScCO2), thermodynamic from solid, 338 K, 18 MPa, ScCO2 density 652 kg/m^3; read-out: S (equilibrium solubility) in ScCO2
measurement_label: solubility thermodynamic at 60 min (µg/mL)
Kindly provide the numeric value in µg/mL only, without the unit symbol.

Quick one: solubility thermodynamic at 60 min for OC[C@H]1O[C@@H](c2ccc(Cl)c(Cc3ccc(O[C@H]4CCOC4)cc3)c2)[C@H](O)[C@@H](O)[C@@H]1O ?
134

====

assay: Solubility of empagliflozin in supercritical carbon dioxide (isobaric-isothermal method, UV-Vis at 276 nm); type: physicochemical; details: supercritical carbon dioxide (ScCO2), thermodynamic from solid, 328 K, 15 MPa, ScCO2 density 656 kg/m^3; read-out: S (equilibrium solubility) in ScCO2
measurement_label: solubility thermodynamic at 60 min (µg/mL)
Enter your answer as a number in µg/mL; do not include the unit.

What solubility thermodynamic at 60 min value was documented for this compound, OC[C@H]1O[C@@H](c2ccc(Cl)c(Cc3ccc(O[C@H]4CCOC4)cc3)c2)[C@H](O)[C@@H](O)[C@@H]1O ?
70.2
